In this section, each of the compounds is paired with its reported growth AUC normalised to DMSO control.
- Test system: P. vulgatus WT;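 further: active when median AUC fell below 0.1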
- Protocol Notes: growth AUC normalised to DMSO control (median) (fraction of control); higher = less growth inhibition, active = hit call of the paper
- Condition Set: 20 µM
Counter-ions that a name gives are not always drawn.
The response must contain the number and no unit.

Worked set:
O=C(CCCl)NCc1ccccc1 [Beclamide] :: 0.966
CCC(=O)OCC(=O)[C@@]1(OC(=O)CC)[C@H](C)C[C@H]2[C@H]3[C@H]([C@@H](O)C[C@@]21C)[C@@]1(C)C=CC(=O)C=C1C[C@H]3Cl [Alclometasone dipropionate] :: 1.04
C[N+]1(C)CCC(=C(c2ccccc2)c2ccccc2)CC1 [Diphemanil methylsulfate] :: 1.02
Nc1nc(O)c2ncn(CCC(CO)CO)c2n1 :: 1.03
CC1(C)[C@@H](OC(=O)CCC(=O)O)CC[C@]2(C)[C@H]3C(=O)C=C4[C@@H]5C[C@@](C)(C(=O)O)CC[C@]5(C)CC[C@@]4(C)[C@]3(C)CC[C@@H]12 [Carbenoxolone disodium salt] :: 0.976

Inquiry: Quick one: growth AUC normalised to DMSO control of C[N+](C)(C)CCOC(N)=O [Carbachol chloride] ?
Reply text: 1.05

Inquiry: Can you share its growth AUC normalised to DMSO control? I mean this compound: COc1nc(C)nc(Cl)c1NC1=NCCN1
Reply text: 0.995

Inquiry: // returns reported growth AUC normalised to DMSO control for input C=C1[C@H](CO)[C@@H](O)C[C@@H]1n1cnc2c(=O)[nH]c(N)nc21
Reply text: 0.996

Inquiry: Fill blank: measured growth AUC normalised to DMSO control of the compound CN1CCN(C(c2ccccc2)c2ccccc2)CC1 [Cyclizine hydrochloride] is ____.
Reply text: 1.04

Inquiry: Any idea what growth AUC normalised to DMSO control was measured for COc1cc(OC)c(C(=O)CCCN2CCCC2)c(OC)c1 [Buflomedil hydrochloride] ?
Reply text: 0.994

Inquiry: So what does the record say about growth AUC normalised to DMSO control for CC(C)Cc1ccc(C(C)C(=O)OCc2ccccn2)cc1 (centres undefined) ?
Reply text: 1.05

Inquiry: Which growth AUC normalised to DMSO control value belongs to CO/N=C(\C(=O)N[C@@H]1C(=O)N2C(C(=O)OC(C)OC(C)=O)=C(COC(N)=O)CS[C@H]12)c1ccco1 (some centres undefined) ?
Reply text: 0.664

Inquiry: Could you share which growth AUC normalised to DMSO control value was measured for CCOC(=O)[C@H](CCc1ccccc1)N[C@H]1CCc2ccccc2N(CC(=O)O)C1=O [Benazepril hydrochloride] ?
Reply text: 1

Inquiry: // growth AUC normalised to DMSO control lookup, key: Cc1nc2n(c(=O)c1CCN1CCC(c3noc4cc(F)ccc34)CC1)CCCC2
Reply text: 1.03

Inquiry: So what does the record say about growth AUC normalised to DMSO control for OC[C@H]1O[C@H](O[C@H]2O[C@H](CO)[C@@H](O)[C@H](O)[C@H]2O)[C@H](O)[C@@H](O)[C@@H]1O [Trehalose dihydrate] ?
Reply text: 1

Inquiry: I have this compound here, CN(C)CCC(c1ccc(Cl)cc1)c1ccccn1 (centres undefined) [Chlorpheniramine maleate] , and I need its recorded growth AUC normalised to DMSO control.
Reply text: 0.987

Inquiry: Field request: growth AUC normalised to DMSO control | item: CS(=O)(=O)c1ccc([C@@H](O)[C@@H](CO)NC(=O)C(Cl)Cl)cc1
Reply text: 0.0102

Inquiry: What value of growth AUC normalised to DMSO control has been reported for the following compound? CC[C@H](C)C(=O)O[C@H]1CCC=C2C=C[C@H](C)[C@H](CC[C@@H]3C[C@@H](O)CC(=O)O3)[C@H]21
Reply text: 0.989

Inquiry: Which measured growth AUC normalised to DMSO control value corresponds to Cc1cc(NS(=O)(=O)c2ccc(N)cc2)nc(C)n1 ?
Reply text: 1.03

The reported measurements were obtained from the supplement of paper PMC12350171.
